- Test system: U2OS
- method: Cytotoxicity against human U2OS cells assessed as reduction in cell viability incubated for 72 hrs by MTS assay
- Format: functional, cell-based
pIC50: −log10 of the molar value.
The following compounds are shown together with reported pIC50 values.

The cases that follow already have their pIC50 on record.
| compound | pIC50 |
| --- | --- |
| CC1(C)CC[C@]2(C(=O)O)CC[C@]3(C)C(=CC[C@@H]4[C@@]5(C)Cc6nccnc6C(C)(C)[C@@H]5CC[C@]43C)[C@@H]2C1 | < 4.30 |
| Cc1oc(=O)oc1COC(=O)[C@]12CC[C@@H](C(C)C)[C@@H]1[C@H]1CC[C@@H]3[C@@]4(C)Cc5cccnc5C(C)(C)[C@@H]4CC[C@@]3(C)[C@]1(C)CC2 | < 4.30 |
| C=C(C=O)[C@@H]1CC[C@]2(C(=O)OCc3cn([C@H]4O[C@H](COC(C)=O)[C@@H](OC(C)=O)[C@H](OC(C)=O)[C@H]4OC(C)=O)nn3)CC[C@]3(C)[C@H](CC[C@@H]4[C@@]5(C)Cc6nccnc6C(C)(C)[C@@H]5CC[C@]43C)[C@@H]12 (stereo in doubt) | 5.80 |

# lookup: pIC50 of C[C@H]1[C@H](C)CC[C@]2(C(=O)O)CC[C@]3(C)C(=CC[C@@H]4[C@@]5(C)Cc6nccnc6C(C)(C)[C@]5(C)CC[C@]43C)[C@H]12
< 4.30

# lookup: pIC50 of CC1(C)CC[C@]23CC[C@]4(C)[C@H](CC[C@@H]5[C@@]6(C)CCC(=O)C(C)(C)[C@@H]6CC[C@]54C)[C@H]2[C@H]1OC3
< 4.30

# lookup: pIC50 of C[C@H]1[C@H](C)CC[C@]2(C(=O)O)CC[C@]3(C)C(=CC[C@@H]4[C@@]5(C)CCC(=O)C(C)(C)[C@@H]5CC[C@]43C)[C@H]12 [URSONIC ACID]
< 4.30

###

- method: Cytotoxicity against human HCT116-p53-null cells assessed as reduction in cell viability incubated for 72 hrs by MTS assay
- Format: functional, cell-based
The following compounds are shown together with reported pIC50 values.
Hey, just a heads up that pIC50 is the negative log base 10 of the concentration in molar.

The cases that follow already have their pIC50 on record.
| structure smiles | pIC50 |
| --- | --- |
| C=C(C)[C@@H]1CC[C@]2(C(=O)OCc3oc(=O)oc3C)CC[C@]3(C)[C@H](CC[C@@H]4[C@@]5(C)Cc6nccnc6C(C)(C)[C@@H]5CC[C@]43C)[C@@H]12 | 4.31 |
| C=C(C)[C@@H]1CC[C@]2(C(=O)O)CC[C@]3(C)[C@H](CC[C@@H]4[C@@]5(C)CCC(=O)C(C)(C)[C@@H]5CC[C@]43C)[C@@H]12 | 4.31 |
| C=C(C)[C@@H]1CC[C@]2(C(=O)OCc3oc(=O)oc3C)CC[C@]3(C)[C@H](CC[C@@H]4[C@@]5(C)CCC(=O)C(C)(C)[C@@H]5CC[C@]43C)[C@@H]12 | 4.72 |

Now for another entry.
# lookup: pIC50 of C=C(C=O)[C@@H]1CC[C@]2(C(=O)OCc3cn([C@H]4O[C@H](COC(C)=O)[C@@H](OC(C)=O)[C@H](OC(C)=O)[C@H]4OC(C)=O)nn3)CC[C@]3(C)[C@H](CC[C@@H]4[C@@]5(C)CC[C@H](O)C(C)(C)[C@@H]5CC[C@]43C)[C@@H]12
5.77
